subject_of_test: cannabinoid type-1 receptors endogenously expressed in Neuro2A cells (Mus musculus)
Sequence (P47746 whole entry): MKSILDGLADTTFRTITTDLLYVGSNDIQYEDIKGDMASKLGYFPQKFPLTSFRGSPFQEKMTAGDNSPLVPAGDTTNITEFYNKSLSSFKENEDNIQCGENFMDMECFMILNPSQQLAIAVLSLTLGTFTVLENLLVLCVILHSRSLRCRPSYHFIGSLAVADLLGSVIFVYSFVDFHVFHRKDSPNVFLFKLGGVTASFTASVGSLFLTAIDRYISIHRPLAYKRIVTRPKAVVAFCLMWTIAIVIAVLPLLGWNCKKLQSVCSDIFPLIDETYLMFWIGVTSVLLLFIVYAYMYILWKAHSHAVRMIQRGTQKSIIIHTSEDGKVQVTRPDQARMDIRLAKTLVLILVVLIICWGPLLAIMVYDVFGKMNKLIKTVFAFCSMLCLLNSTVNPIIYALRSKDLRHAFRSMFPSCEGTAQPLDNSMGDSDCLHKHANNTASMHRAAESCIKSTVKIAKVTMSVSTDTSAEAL
test_description: Intracellular cAMP levels
Assay type: cell-based
experimental_context: modulation of AC-activity compared to full agonist CP-55,940
reported_metric: CB1R intrinsic activity

In [3]: df
Out[3]:
                                   compound                           subject_of_test          reported_metric          meas_value
0  OC1/C(=C/c2cn(Cc3ccccc3)c3ccccc23)N2CCC1CC2 (stereo not shown) [Compound 8]  cannabinoid type-1 receptors endogenously expressed in Neuro2A cells (Mus musculus)  CB1R intrinsic activity  Neutral Antagonist
1  O=C1/C(=C/c2cn(Cc3ccc(Cl)cc3)c3ccccc23)N2CCC1CC2 [Compound 1]  cannabinoid type-1 receptors endogenously expressed in Neuro2A cells (Mus musculus)  CB1R intrinsic activity  Neutral Antagonist
